# Tested on: Streptococcus pyogenes
# measurement protocol: Antibacterial activity against erythromycin-susceptible Streptococcus pyogenes by CLSI M7-A7 broth microdilution method
# Assay type: functional
readout type: MIC (µg/mL)
One number for each entry, in µg/mL.

### Prompt // returns reported MIC for input "CN[C@H](CC(C)C)C(=O)N[C@H]1C(=O)N[C@@H](CC(N)=O)C(=O)N[C@H]2C(=O)N[C@H]3C(=O)N[C@H](C(=O)N[C@H](C(=O)O)c4cc(O)cc(O)c4-c4cc3ccc4O)[C@H](O)c3ccc(c(Cl)c3)Oc3cc2cc(c3O[C@@H]2O[C@H](CO)[C@@H](O)[C@H](O)[C@H]2O[C@H]2C[C@](C)(N)[C@H](O)[C@H](C)O2)Oc2ccc(cc2Cl)[C@H]1O"
### Response 0.25

###

What MIC90 was measured for each of the following?
# Test system: Staphylococcus aureus
# measurement protocol: Antibacterial activity against methicillin-resistant Staphylococcus aureus by CLSI M7-A7 broth microdilution method
# Assay type: functional
Answers are plain numbers, in µg/mL.

- CCO/N=C(\C(=O)N[C@@H]1C(=O)N2C(C(=O)[O-])=C(Sc3nc(-c4cc[n+](C)cc4)cs3)CS[C@H]12)c1nsc(NP(=O)(O)O)n1: 1
- CCCCCCCCCC(=O)N[C@@H](Cc1c[nH]c2ccccc12)C(=O)N[C@H](CC(N)=O)C(=O)N[C@@H](CC(=O)O)C(=O)N[C@@H]1C(=O)NCC(=O)N[C@@H](CCCN)C(=O)N[C@@H](CC(=O)O)C(=O)N[C@H](C)C(=O)N[C@@H](CC(=O)O)C(=O)NCC(=O)N[C@H](CO)C(=O)N[C@@H]([C@H](C)CC(=O)O)C(=O)N[C@@H](CC(=O)c2ccccc2N)C(=O)O[C@@H]1C: 0.5
- CC(=O)NC[C@H]1CN(c2ccc(N3CCOCC3)c(F)c2)C(=O)O1: 2

Kindly consider the entry below.
### Prompt Form entry - test system: Staphylococcus aureus; read-out: MIC90; compound: "CN[C@H](CC(C)C)C(=O)N[C@H]1C(=O)N[C@@H](CC(N)=O)C(=O)N[C@H]2C(=O)N[C@H]3C(=O)N[C@H](C(=O)N[C@H](C(=O)O)c4cc(O)cc(O)c4-c4cc3ccc4O)[C@H](O)c3ccc(c(Cl)c3)Oc3cc2cc(c3O[C@@H]2O[C@H](CO)[C@@H](O)[C@H](O)[C@H]2O[C@H]2C[C@](C)(N)[C@H](O)[C@H](C)O2)Oc2ccc(cc2Cl)[C@H]1O"
### Response 1

###

# Tested on: Staphylococcus aureus
# measurement protocol: Antibacterial activity against methicillin-resistant Staphylococcus aureus by CLSI M7-A7 broth microdilution method
# Type: functional
What MIC50 was measured for each of the following?

* Cc1onc(-c2ccccc2)c1C(=O)N[C@@H]1C(=O)N2[C@@H]1SC(C)(C)[C@@H]2C(=O)O | > 8 µg/mL

I would be grateful if you could provide MIC50 for each of the following entries.
1. CC1(C)S[C@@H]2[C@H](NC(=O)Cc3ccccc3)C(=O)N2[C@H]1C(=O)O
2. CC[C@H]1OC(=O)[C@H](C)[C@@H](O[C@H]2C[C@@](C)(OC)[C@@H](O)[C@H](C)O2)[C@H](C)[C@@H](O[C@@H]2O[C@H](C)C[C@H](N(C)C)[C@H]2O)[C@](C)(O)C[C@@H](C)C(=O)[C@H](C)[C@@H](O)[C@]1(C)O

### Response
1. > 16 µg/mL
2. > 8 µg/mL
